- Tested on: HCT-15
- protocol-details: Anti-cancer activity against human HCT-15 cells incubated for 72 hrs by Cell Titer Glo assay
- Format: functional, cell-based
- test-context: HCT-15, 72 h
property-name: IC50 (µM)
Answers are plain numbers, in µM.

What reported IC50 corresponds to `H-KKKKLKKILKKLFQFINQLDNQLQDIKQNK-NH2` on HCT-15?
1

###

- Test system: NCI-H460
- protocol-details: Anti-cancer activity against human NCI-H460 cells incubated for 72 hrs by Cell Titer Glo assay
- Assay type: functional, cell-based
- test-context: NCI-H460, 72 h
property-name: pIC50
One number for each entry, as −log10 of the molar value.

// lookup pIC50 | system=NCI-H460 | key= `H-KKKKLKKILKKLFQFINQLDNQLQDIKQNK-NH2`
6.00
